Source of measurements: paper PMC9482650

- subject_of_test: DLG4_3, P78352
- Sequence (P78352 306-403): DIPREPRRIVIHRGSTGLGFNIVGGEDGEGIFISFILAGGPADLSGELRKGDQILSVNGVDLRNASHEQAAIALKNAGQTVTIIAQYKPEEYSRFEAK
- test_details: holdup assay
- Parameters: key: below the threshold = too weak to quantify, mostly under pKd 3.1 to 4
- experimental_context: plain residues with an end cap or a label only (N-terminal biotin on a linker: ado-ado)
reported_metric: pKd

YNNCLEILRV [DCAF7, P61962] : below the threshold
VRNLPESEEL [MYOZ3, Q8TDC0] : below the threshold
VKPQVSESKL [ACOT8, O14734] : below the threshold
RRRESYSTTV [EVI5, O60447] : 4.44
QMNQTLPVQV [EPHB3, P54753] : below the threshold

Report pKd for every entry below.
1. DTTVPESEDL [MYOZ2, Q9NPC6]
2. VDSTVKVWTC [TRAF7, Q6Q0C0]

1: below the threshold; 2: 3.56

If you can, please state the reported pKd value of MLSKQSESAI [FLVCR1, Q9Y5Y0] .
below the threshold
